# Measurement target: UDP-3-O-acyl-N-acetylglucosamine deacetylase (Escherichia coli K-12)
# Sequence (P0A725 whole entry): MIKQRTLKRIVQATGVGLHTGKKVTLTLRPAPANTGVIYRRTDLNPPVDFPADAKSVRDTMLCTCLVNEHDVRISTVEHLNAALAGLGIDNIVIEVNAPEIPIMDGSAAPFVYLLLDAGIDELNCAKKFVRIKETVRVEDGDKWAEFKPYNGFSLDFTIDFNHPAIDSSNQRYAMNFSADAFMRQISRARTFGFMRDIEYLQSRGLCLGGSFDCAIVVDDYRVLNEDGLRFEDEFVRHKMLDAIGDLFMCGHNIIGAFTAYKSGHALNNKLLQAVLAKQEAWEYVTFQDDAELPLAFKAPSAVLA
Reported property: IC50 (µM)
A number alone suffices; assume µM.

Reported IC50 of O=C(CO[C@@H](CO)c1ccc(C#Cc2ccccc2)cc1)NO : 31.6

Reported IC50 of O=C(CO[C@@H](CO)c1ccc(C#Cc2ccc(CN3CCOCC3)cc2)cc1)NO : 198

Reported IC50 of O=C(NO)[C@H](CO)O[C@H](CO)c1ccc(C#Cc2ccc(CN3CCOCC3)cc2)cc1 : 2.6

Reported IC50 of O=C(CO[C@H](CO)c1ccc(C#Cc2ccccc2)cc1)NO : 0.48

Reported IC50 of O=C(COCc1ccc(C#Cc2ccc(CN3CCOCC3)cc2)cc1)NO : 10.5

Reported IC50 of O=C(CO[C@H](CO)c1ccc(C#Cc2ccc(CN3CCOCC3)cc2)cc1)NO : 0.69

###

Consider the following compounds; for each one, report its IC50.
# Measurement target: UDP-3-O-acyl-N-acetylglucosamine deacetylase (Escherichia coli K-12, UniProt P0A725)

Reported IC50 of C#Cc1ccc([C@H](CO)OCC(=O)NO)cc1 : > 200 µM

Reported IC50 of C#Cc1ccc([C@@H](CO)OCC(=O)NO)cc1 : > 200 µM

Reported IC50 of O=C(CO[C@H](CO)c1ccc(Br)cc1)NO : > 200 µM

Reported IC50 of O=C(COCc1ccc(C#Cc2ccccc2)cc1)NO : > 200 µM

Reported IC50 of C[Si](C)(C)C#Cc1ccc([C@H](CO)OCC(=O)NO)cc1 : > 200 µM
